Molecular target: T1, Fusion protein of extracellular domain of human TIGIT and mouse IgG2a Fc fragment (human TIGIT ECD-mFc) (human)
T1 construct: The entry includes the signal peptide (limits not recoverable) and the mouse IgG2a Fc
T1 chain: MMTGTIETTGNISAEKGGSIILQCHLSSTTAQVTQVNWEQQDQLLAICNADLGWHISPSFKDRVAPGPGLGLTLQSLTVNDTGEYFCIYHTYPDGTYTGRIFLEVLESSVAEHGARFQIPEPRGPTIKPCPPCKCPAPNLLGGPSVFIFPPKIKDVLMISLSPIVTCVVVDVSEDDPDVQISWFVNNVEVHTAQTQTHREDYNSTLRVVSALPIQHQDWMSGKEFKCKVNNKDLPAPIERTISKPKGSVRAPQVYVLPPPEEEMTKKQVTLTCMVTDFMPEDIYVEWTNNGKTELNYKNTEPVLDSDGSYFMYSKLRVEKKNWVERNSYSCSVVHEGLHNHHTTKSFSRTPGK
Experiment: FACS; blocking of TIGIT ECD-mFc binding to CHO-K1 CD155 cells
recorded metric: IC50 (pM)
Hi! Could you send only the number? It should be in pM, unit omitted.

binder | IC50 / pM
TIGIT-005-H2L1d (antibody, V domains shown, Humanized anti-TIGIT antibody with NG-site mutation in VL) VH: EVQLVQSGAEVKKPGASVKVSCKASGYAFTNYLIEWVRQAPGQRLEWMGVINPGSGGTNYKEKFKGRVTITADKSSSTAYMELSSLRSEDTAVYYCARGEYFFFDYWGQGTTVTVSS VL: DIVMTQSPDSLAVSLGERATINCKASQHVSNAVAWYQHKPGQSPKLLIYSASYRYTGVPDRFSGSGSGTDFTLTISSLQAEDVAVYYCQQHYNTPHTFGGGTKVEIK | 467

**Q:** Look up IC50 for this binder: TIGIT-006-H5L3 (antibody, V domains shown, Humanized anti-TIGIT antibody) VH: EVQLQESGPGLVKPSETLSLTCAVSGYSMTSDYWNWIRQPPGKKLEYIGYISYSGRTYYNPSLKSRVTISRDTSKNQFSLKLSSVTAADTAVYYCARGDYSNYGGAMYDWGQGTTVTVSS VL: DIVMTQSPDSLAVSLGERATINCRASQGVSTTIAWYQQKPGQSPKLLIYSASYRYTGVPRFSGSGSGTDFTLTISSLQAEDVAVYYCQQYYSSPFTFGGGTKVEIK
**A:** 458

**Q:** Requested field: IC50. Item: TIGIT-070-H1L1 (antibody, V domains shown, Humanized anti-TIGIT antibody) VH: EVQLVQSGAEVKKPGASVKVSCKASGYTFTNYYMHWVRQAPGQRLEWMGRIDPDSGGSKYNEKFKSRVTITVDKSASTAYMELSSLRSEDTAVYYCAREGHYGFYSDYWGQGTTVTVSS VL: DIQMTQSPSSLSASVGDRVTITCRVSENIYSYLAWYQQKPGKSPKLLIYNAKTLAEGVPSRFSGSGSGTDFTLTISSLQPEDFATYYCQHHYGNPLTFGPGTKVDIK
**A:** 456

**Q:** Please look up its IC50: TIGIT-002-H4L3 (antibody, V domains shown, Humanized anti-TIGIT antibody) VH: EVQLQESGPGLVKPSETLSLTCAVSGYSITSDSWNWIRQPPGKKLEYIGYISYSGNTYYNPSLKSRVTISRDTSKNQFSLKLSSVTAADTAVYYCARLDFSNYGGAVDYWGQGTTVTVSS VL: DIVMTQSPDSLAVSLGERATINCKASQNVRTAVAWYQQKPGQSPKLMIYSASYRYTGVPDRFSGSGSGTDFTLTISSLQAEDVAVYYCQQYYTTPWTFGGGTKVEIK
**A:** 492
